Values compiled from patent US20200347130A1.

assayed-target: T1, Full-length human CD96 on CHO-S cells (human, UniProt P40200 22-585)
T1 construct: also called CD96-CHOs; hCD96-CHOs
T1 sequence: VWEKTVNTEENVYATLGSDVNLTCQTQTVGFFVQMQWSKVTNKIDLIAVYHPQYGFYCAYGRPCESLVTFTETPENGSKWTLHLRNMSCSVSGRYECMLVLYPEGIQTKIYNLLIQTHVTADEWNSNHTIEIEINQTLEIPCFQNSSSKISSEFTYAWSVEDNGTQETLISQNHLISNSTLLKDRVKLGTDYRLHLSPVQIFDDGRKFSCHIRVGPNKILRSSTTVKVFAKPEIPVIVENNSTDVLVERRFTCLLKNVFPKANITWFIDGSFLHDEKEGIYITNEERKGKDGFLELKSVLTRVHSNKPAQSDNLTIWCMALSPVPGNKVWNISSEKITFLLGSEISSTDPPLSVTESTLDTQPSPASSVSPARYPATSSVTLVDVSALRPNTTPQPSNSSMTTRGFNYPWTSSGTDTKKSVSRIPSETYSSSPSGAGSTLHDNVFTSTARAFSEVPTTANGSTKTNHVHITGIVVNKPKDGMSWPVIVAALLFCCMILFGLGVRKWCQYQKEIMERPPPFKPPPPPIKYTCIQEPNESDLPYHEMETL
assay-name: cell ELISA, fixed CD96-overexpressing CHO-S cells
attribute-measured: pEC50
# pEC50: negative log10 of molar concentration; output just the value

GET /value?item= h1722-005 (antibody, V domains shown, Only variable regions are tied to this name) VH: EVQLVQSGAEVKKPGSSVKVSCKASGGTFSDYWMHWVRQAPGQGLEWMGMLHPNSGTTSFNEKFKIRVTITADKSTSTAYMELSSLRSEDTAVYYCARDYSGPFAYWGQGTLVTVSS VL: DIQMTQSPSSLSASVGDRVTITCSASSSVNYIHWYQQKPGKAPKRWIYDTSKLASGVPSRFSGSGSGTDFTLTISSLQPEDFATYYCQQWRSNPLTFGQGTKLEIK &field=pEC50 returns 10.35
